Test system: 3T3-L1
Experiment: Anti-adipogenic activity in MDI-cocktail differentiated mouse 3T3-L1 pre-adipocyte cells assessed as inhibition of adipogenesis by Oil Red O staining based microscopic analysis
Assay type: functional, cell-based
Settings: read-out: IC50
PROPERTY NAME: IC50
Please format your answer as a value with the unit trailing.

Cc1ccc(-c2cnc(-c3ccc[n+](Cc4cccc(C)c4)c3)o2)cc1.[Br-]
0.39 µM

Kindly review the next molecule as well.
Query string: Fill in: IC50 of `CC(C)=CCOc1ccc(-c2cnc(-c3cccnc3)o2)cc1` is ___
Result string: 103 µM

---

Test system: 3T3-L1
Assay: Cytotoxicity against mouse 3T3-L1 pre-adipocyte cells assessed as reduction in cell viability >20 uM incubated for 48 hrs by MTT assay
Assay type: toxicity, cell-based
Conditions: 3t3-l1, 48 h
PROPERTY NAME: Activity

Recorded results for 7 compounds are shown here.
FC(F)(F)c1ccc(C[n+]2cccc(-c3ncc(-c4ccc(Cl)cc4)o3)c2)cc1.[Br-]
Toxic
COc1ccc(-c2cnc(-c3ccc[n+](Cc4ccc(Cl)c(Cl)c4)c3)o2)cc1.[Br-]
Toxic
CC(C)=CCC/C(C)=C\C[n+]1cccc(-c2ncc(-c3ccc(C)cc3)o2)c1.[Br-]
Toxic
Clc1ccc(C[n+]2cccc(-c3ncc(-c4ccc(Cl)cc4)o3)c2)cc1.[Br-]
Toxic
Cc1cccc(C[n+]2cccc(-c3ncc(-c4ccccc4)o3)c2)c1.[Br-]
Toxic
Br.Cc1ccc(-c2cnc(-c3ccc[n+](Cc4ccc([N+](=O)[O-])cc4)c3)o2)cc1
Toxic
Br.O=[N+]([O-])c1ccc(C[n+]2cccc(-c3ncc(-c4ccccc4)o3)c2)cc1
Toxic

Kindly review the next compound as well.
Query string: Provide the documented Activity with 3T3-L1 as the system for `CC(C)=CC[n+]1cccc(-c2ncc(-c3ccc(Cl)cc3)o2)c1.[Br-]`
Result string: Toxic
